Data provenance: PubChem BioAssay

study target: Voltage-gated potassium channel subunit beta-2 (Rattus norvegicus) (UniProt P62483)
Sequence (P62483 whole entry, looked up): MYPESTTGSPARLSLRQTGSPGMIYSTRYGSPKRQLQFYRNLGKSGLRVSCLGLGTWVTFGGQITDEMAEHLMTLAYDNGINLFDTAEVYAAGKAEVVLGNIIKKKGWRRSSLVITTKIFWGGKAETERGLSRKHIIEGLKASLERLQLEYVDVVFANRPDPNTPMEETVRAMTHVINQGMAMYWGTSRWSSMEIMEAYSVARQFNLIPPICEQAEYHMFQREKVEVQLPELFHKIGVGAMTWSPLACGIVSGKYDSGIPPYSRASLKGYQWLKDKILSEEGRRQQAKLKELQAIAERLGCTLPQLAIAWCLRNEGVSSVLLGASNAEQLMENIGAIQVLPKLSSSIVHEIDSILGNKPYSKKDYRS
test details: KvBeta positive modulators, primary screen, biochemical, NADPH fluorescence (AID 623);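 note: fluorescence intensity change per second fitted from 20 to 320 s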
condition info: Recombinant KvBeta, NADPH fluorescence decrease slope, 10 min; at 10 µM; stronger effect = lower value
quantity: NADPH fluorescence slope
// no unit, no text: just the number

Request: Endpoint output: NADPH fluorescence slope of CCc1nc(N2CCCC2)c(C#N)c2c1CCCC2 . Value?
Result: 3e-05

Request: Any idea what its NADPH fluorescence slope is? The compound is Cc1ccc(S(=O)(=O)c2cc3c(=O)n4ccccc4nc3n(CC3CCCO3)c2=N)cc1C (stereo not drawn)
Result: -3.3e-05

Request: Field request: NADPH fluorescence slope | item: CCOc1ccc2nc(NC(NC(C)=O)(C(=O)OC)C(F)(F)F)sc2c1 (stereo not drawn)
Result: -0.000128

Request: # NADPH fluorescence slope lookup, item CCOC(=O)CSc1nnc2n(Cc3ccccc3)c(=O)c3c4c(sc3n12)CCC4
Result: -0.000132

Request: So what does the record say about NADPH fluorescence slope for COc1ccc(NC(=O)c2c(C)cc(=O)oc2C)c(OC)c1 ?
Result: -3.9e-05

Request: For the compound shown here, O=C(NCCCNCc1ccccc1)/C(=N\O)c1ccccc1 , give the reported NADPH fluorescence slope.
Result: -5.4e-05

Request: Endpoint output: NADPH fluorescence slope of CC1(C)Cc2c(C#N)c(N3CCN(C(=O)c4ccco4)CC3)nc(-c3ccco3)c2CS1 . Value?
Result: -6.6e-05

Request: Dear colleague, I am looking for the recorded NADPH fluorescence slope of the following compound: O=C1c2ccccc2C(=O)N1c1ncccn1
Result: -0.000107

Request: Quick check: NADPH fluorescence slope of C=CCN(C)CCCNC(=O)/C=N/O ?
Result: -8.8e-05

Request: What does the record list as NADPH fluorescence slope for Cc1sc(-n2c(C)ccc2C)c(C#N)c1C ?
Result: -9.6e-05

Request: Find the recorded NADPH fluorescence slope belonging to COc1ccc2c(c1OC)C(=O)N1c3ccccc3C(=O)N(c3ccccc3F)C21 (stereo not drawn) and report it.
Result: -5.7e-05

Request: Name the recorded NADPH fluorescence slope for CC(=O)N1CCN=C1SCc1ccc(Br)cc1 .
Result: -9.6e-06

Request: Value lookup for NADPH fluorescence slope; key = Cc1cc(=O)oc(C)c1C(=O)NCC(C)NC(=O)c1c(C)cc(=O)oc1C (stereo not drawn)
Result: -5.3e-05

Request: What value of NADPH fluorescence slope has been recorded for this entry: O=C(CSc1nccn1-c1cccc(Cl)c1)NC1CCCC1
Result: 3e-05

Request: Fill blank: measured NADPH fluorescence slope of the compound O=c1[nH]c(N2CCc3ccccc32)nc2c1CCCC2 is ____.
Result: -4.2e-05

Request: Name the reported NADPH fluorescence slope value associated with the compound CC1CCN(c2[nH]c(=S)c(C#N)c3c2CCCC3)CC1
Result: -0.000131

Request: Which NADPH fluorescence slope is reported for this compound? Cc1ccccc1Cc1c(C)nc2c(C(=O)N3CCN(Cc4ccc5c(c4)OCO5)CC3)cnn2c1C
Result: -1.3e-05

Request: Return reported NADPH fluorescence slope; argument: Oc1ccc2ccccc2c1C=NC12CN3CCN(CN(C3)C1)C2
Result: -0.000124

Request: Look at this compound and give its reported NADPH fluorescence slope. CCCCc1cc(=O)oc2c(CN3CCCC3)c(O)ccc12
Result: 5.9e-06

Request: Field request: NADPH fluorescence slope | item: Cc1[nH]nc2c1C(=O)CC(C)(C)C2
Result: -1.7e-05

Request: Would you kindly share the measured NADPH fluorescence slope for COc1ccc(C(=O)N(CCCO)Cc2cc3c(C)ccc(C)c3[nH]c2=O)cc1OC ?
Result: -0.00013

Request: Request the reported NADPH fluorescence slope associated with COCCn1c(SCC(=O)Nc2sc(C)c(C)c2C#N)nnc1C(C)C
Result: -7.2e-05

Request: Reported NADPH fluorescence slope, compound O=C(C1CCN(C2CC(=O)N(c3ccc(F)cc3)C2=O)CC1)N1CCOCC1 (stereo not drawn) : ____
Result: -2.5e-05
